These data points were gathered from PubChem BioAssay.

target: Streptavidin (Streptomyces avidinii)
measurement.protocol: streptavidin binders on small-molecule microarray, primary screen, artefact control for SMM compound annotation, biophysical, 635/667 nm fluorescence (AID 1147);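 also: signal reflects streptavidin binding to arrayed compounds as a control protein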
condition.summary: streptavidin binding, higher = more signal
So basically: composite z-score at 0.4 or higher? That is rule met. Lower than 0.4? That is rule not met.

hey, is composite z-score for this one >= 0.4? O=C(NCc1ccccc1)[C@@]1(CCS(=O)(=O)c2ccccc2)COC(c2ccc(OCCCO)cc2)=N1 rule met

Dear colleague, could you confirm whether CCN1C(C)=C(C(=O)OC)[C@@H](c2ccccc2)N2C(=O)[C@](O)(C(=O)OC)[C@@H](c3ccccc3)C(C(=O)c3ccccc3)=C12 has composite z-score at or above 0.4? rule not met

Say whether CC(=O)NCCCC[C@@H]1NC(=O)[C@@H]2C[C@H](C(=O)NCc3ccc(F)cc3)[C@H](c3cccc(OCCO)c3)N2C1=O shows composite z-score of 0.4 or more. rule not met

Is reported composite z-score greater than or equal to 0.4 here: CCOC(=O)C1=CC[C@@H](c2ccccc2)N(S(=O)(=O)c2ccc(C)cc2)[C@H]1C rule met

Test whether the compound CO[C@H]1COC(=O)[C@H](C)COC(=O)[C@H](Cc2ccccc2)NC(=O)CC=C[C@H]1C records composite z-score of 0.4 or higher. rule not met

Quick check, composite z-score >= 0.4? CCCC/C=C/[C@H]([C@@H](O)Cc1ccccc1)N(CC#Cc1ccccc1)Cc1ccccc1Br rule not met

Has CC(=O)NCCCC[C@@H]1NC(=O)[C@@H]2C[C@H](C(=O)NCCCCCNC(=O)CS)[C@H](c3ccc(O)cc3)N2C1=O a recorded composite z-score greater than or equal to 0.4? rule not met

Does the reported composite z-score for C=CC[C@]1(C(=O)O)N=C(c2ccc(OCCCO)cc2)O[C@H]1c1ccccc1N=[N+]=[N-] fall at or above the 0.4 mark? rule met

Reported composite z-score reaches at least 0.4 for CCOC(=O)C1=CCC(c2cccc3ccccc23)N(S(=O)(=O)c2ccc(C)cc2)C1 (stereo not given) ? rule met

Tell me whether composite z-score is at least 0.4 here: Cc1ccc(S[C@]2(C(=O)NCCN3CCOCC3)CC(=O)N(C3Cc4ccccc4C3)[C@@H]2c2ccc(CO)cc2I)cc1 rule not met

hey, is composite z-score for this one >= 0.4? CO[C@H]1COC(=O)CC=C[C@H](C)[C@@H](OC)COC(=O)[C@H](Cc2ccccc2)NC(=O)CC=C[C@@H]1C rule not met

Kindly determine if composite z-score recorded for CC(=O)NCCCC[C@@H]1NC(=O)[C@H]2C[C@@H](C(=O)NCCCCCCN(C)C)[C@@H](c3cccc(OCCO)c3)N2C1=O is above or exactly 0.4. rule not met

Identify whether the reported composite z-score of the following compound is 0.4 or greater: CCCC=C(CCC)[C@@H](NS(=O)(=O)c1cccc(C(F)(F)F)c1)c1ccc(C(=O)OC)cc1 rule not met

Answer whether composite z-score of CO[C@@H]1COC(=O)[C@H](C)NC(=O)CC=C[C@@H](C)[C@H](OC)COC(=O)[C@H](C)NC(=O)CC=C[C@H]1C is greater than or equal to 0.4. rule met

# check: composite z-score of COCCOC(=O)N1C(=O)[C@@]2(c3cc(C#CCCO)ccc31)[C@H](c1ccc(OCCO)cc1)N1[C@H](c3ccccc3)[C@H](c3ccccc3)OC(=O)[C@H]1[C@@H]2C(=O)NC[C@H](O)c1ccccc1 is greater than or equal to 0.4 rule met
